Provenance of the data: patent US20260166029A1

Test system: OVCAR3-R
protocolSummary: Cell Titer Glo 2.0 viability, prexasertib alone or with gemcitabine, three days (Example 11)
Assay type: cell-based
conditionSummary: Homo sapiens, 72 h, gemcitabine 0.53 nM, read-out: Prexasertib Relative IC50
assayMetric: IC50 (nM)
Give the value in nM but do not write nM after it.

Entry COc1cccc(OCCCN)c1-c1cc(Nc2cnc(C#N)cn2)n[nH]1 , IC50 reported as 30

---

Test system: A549
protocolSummary: Cell viability, sensitivity to prexasertib (Example 1)
Format: cell-based, human
conditionSummary: Homo sapiens; A549 cell line; reduction in cell viability by 50%
assayMetric: EC50

Note to self: EC50 of COc1cccc(OCCCN)c1-c1cc(Nc2cnc(C#N)cn2)n[nH]1 with A549 was > 10 µM
